Molecular target: Neutrophil cytosol factor 1 (Homo sapiens) (UniProt P14598)
Sequence (P14598 whole entry, looked up): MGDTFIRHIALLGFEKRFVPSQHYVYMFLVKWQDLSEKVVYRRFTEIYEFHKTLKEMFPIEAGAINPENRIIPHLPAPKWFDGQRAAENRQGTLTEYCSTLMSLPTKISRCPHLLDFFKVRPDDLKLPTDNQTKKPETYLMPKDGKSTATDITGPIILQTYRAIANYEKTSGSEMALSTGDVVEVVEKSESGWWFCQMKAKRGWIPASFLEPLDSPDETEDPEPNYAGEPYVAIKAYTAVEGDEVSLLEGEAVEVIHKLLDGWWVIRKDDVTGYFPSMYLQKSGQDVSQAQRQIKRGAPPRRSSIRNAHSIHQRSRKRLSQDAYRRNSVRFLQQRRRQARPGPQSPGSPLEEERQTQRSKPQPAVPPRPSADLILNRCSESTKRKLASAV
Assay: blockers of p47phox binding to p22phox – biochemical, uHTS, NADPH oxidase regulatory subunit, primary screen (AID 1274);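 also: 0% = p47phox with labelled peptide and 100% = labelled peptide alone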
Details: p47phox/p22phox peptide binding, fluorescence polarization, 2 h; at 24.7 µM
Among all 220,000 compounds or so, about 1,100 (0.5%) were called active.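 The calls were made as follows: active = inhibition above about 30% (limit read from the data); inactive = the rest.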 This is one part of a sample in which actives are shown more often than they occur.
Possible outcomes: 1.0 (active), 0.0 (inactive)

| MOLECULE | LABEL |
| --- | --- |
| O=C(O)CCc1nc2cc(Cl)ccc2n(Cc2ccccc2)c1=O | 0.0 |
| O=C(Nn1c(-c2ccc(Cl)cc2)nc2ccccc2c1=O)c1cccnc1Cl | 0.0 |
| Cc1cc(-c2nc(C)c(-c3nnc(SCC(=O)Nc4ccccc4)n3C)s2)no1 | 0.0 |
| O=C(NCc1ccccn1)c1c(O)c2c([nH]c1=O)CCCC2 | 0.0 |
| Oc1c(CN2CCN(c3ccc(F)cc3)CC2)cc(Cl)c2cccnc12 | 0.0 |
| Cc1ccnc(NS(=O)(=O)c2ccc(NC(=O)c3ccc(S(=O)(=O)N(C)C)cc3)cc2)n1 | 1.0 |
| CCCc1c(C(=O)O)cnn1-c1ccc(Cl)cc1 | 0.0 |
| C[N+](C)(C)CCNC(=O)c1c(O)c2c([nH]c1=O)CCCC2 | 1.0 |
| O=C(NN1C(=O)C2C(C1=O)C1C=CC2C12CC2)c1ccccc1Cl (stereo not drawn) | 1.0 |
| CC1=CC(C)(C)NC(=S)N1NC(=O)c1ccccc1Cl | 0.0 |
| Cn1c(C(=O)O)ccc1S(=O)(=O)N(Cc1ccccc1)Cc1ccccc1 | 0.0 |
| C=CCN1CC(C)/C(=N\O)CC1C (stereo not drawn) | 0.0 |
| CCc1ccc[n+](-c2nc([O-])sc2C=O)c1 | 0.0 |
| CCOC(=O)N1CCN(CCC(=O)Nc2cc(OC)ccc2OC)CC1 | 0.0 |
| Cn1c(SCC(=O)OC2CCCCC2)nnc1-c1ccc(S(=O)(=O)N2CCCC2)cc1 | 0.0 |
| CCc1nnc(NC(=O)c2c(O)c3c([nH]c2=O)CCCC3)s1 | 0.0 |
| O=C(Nc1ccccc1N1CCOCC1)c1csc2c1CCCC2 | 0.0 |
| COC(=O)c1sc(=S)n(-c2ccccc2)c1N | 0.0 |
| Cc1ccnc(NS(=O)(=O)c2ccc(NC(=O)c3ccc(S(=O)(=O)N4CCOCC4)cc3)cc2)n1 | 0.0 |
| COc1ccc(NC(=O)CCN2CCCC2)c(OC)c1 | 0.0 |
| Cn1c(SCC(=O)Nc2cccc(O)c2)nnc1-c1ccc(S(=O)(=O)N2CCOCC2)cc1 | 1.0 |
| O=S1(=O)CC/C(=N\Nc2ccc(F)cc2)c2ccsc21 | 0.0 |
| CCN1CCN(C(c2cccnc2)c2cc(Cl)c3cccnc3c2O)CC1 (stereo not drawn) | 1.0 |
